Record form. Attribute: pIC50. Fill in for each entry.
Biological target: Substance-K receptor (Homo sapiens, UniProt P21452)
Sequence (P21452 whole entry): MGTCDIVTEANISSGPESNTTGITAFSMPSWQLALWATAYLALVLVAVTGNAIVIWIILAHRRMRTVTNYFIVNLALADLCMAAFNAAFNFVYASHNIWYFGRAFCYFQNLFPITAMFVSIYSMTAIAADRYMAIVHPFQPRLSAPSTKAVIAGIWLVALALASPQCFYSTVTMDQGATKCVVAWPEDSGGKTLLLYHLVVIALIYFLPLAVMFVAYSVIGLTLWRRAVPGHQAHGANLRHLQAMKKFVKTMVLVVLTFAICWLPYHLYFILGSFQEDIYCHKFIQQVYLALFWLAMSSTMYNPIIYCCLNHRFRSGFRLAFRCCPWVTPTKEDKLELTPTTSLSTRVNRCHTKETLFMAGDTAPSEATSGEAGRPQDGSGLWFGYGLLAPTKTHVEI
Experiment: Tested for binding affinity against Tachykinin receptor 2 expressed in CHO cells, using [125]SP as radioligand.
Assay type: cell-based
The read-out pIC50 is expressed as -log10 of concentration in moles per litre.

Which pIC50 is listed for `C[C@H](NC(=O)CN)C(=O)N[C@H]1CSSC[C@@H](C(=O)O)NC(=O)[C@H](CO)NC(=O)[C@H]([C@@H](C)O)NC(=O)[C@H](Cc2ccccc2)NC(=O)[C@H]([C@@H](C)O)NC(=O)[C@H](Cc2ccc(F)cc2)NC(=O)[C@H](Cc2c[nH]c3ccccc23)NC(=O)[C@H](Cc2ccccc2)NC(=O)[C@H](Cc2ccccc2)NC(=O)[C@H](CC(N)=O)NC(=O)[C@H](CCCCN)NC1=O` ? 6.14

Which pIC50 is listed for `C[C@@H](O)[C@@H]1NC(=O)[C@H](Cc2ccccc2)NC(=O)[C@H]([C@@H](C)O)NC(=O)[C@H](Cc2ccc(F)cc2)NC(=O)[C@@H](Cc2c[nH]c3ccccc23)NC(=O)[C@H](Cc2ccccc2)NC(=O)[C@H](Cc2ccccc2)NC(=O)[C@H](CC(N)=O)NC(=O)[C@H](CCCCN)NC(=O)[C@@H](N)CSSC[C@@H](C(=O)O)NC(=O)[C@H](CO)NC1=O` ? 7.34

Which pIC50 is listed for `C[C@H](NC(=O)CN)C(=O)N[C@H]1CSSC[C@@H](C(=O)O)NC(=O)[C@H](CO)NC(=O)[C@H]([C@@H](C)O)NC(=O)[C@H](Cc2ccccc2)NC(=O)[C@H]([C@@H](C)O)NC(=O)[C@H](CCCCN)NC(=O)[C@H](Cc2c[nH]c3ccccc23)NC(=O)[C@H](Cc2ccccc2)NC(=O)[C@H](Cc2ccccc2)NC(=O)[C@H](CC(N)=O)NC(=O)[C@H](CCCCN)NC1=O` ? 6.07
